Test system: B cell line, TNFa signaling counterscreen reporter
EXPERIMENT_NOTES: TNFa signaling inhibitors in B cell line, dose response, counter-screen (AID 1259334);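 also: cells stimulated with TNFa after compound preincubation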
The source made the active and inactive calls. Rule as the data show it: active = AC50 below about 11 µM.
Lab note: assign the record to one of 1 (yes) = active, 0 (no) = inactive

Called result for "C[C@H]1CN([C@@H](C)CO)C(=O)c2ccccc2-c2ccccc2CO[C@@H]1CN(C)Cc1ccccc1C(F)(F)F"
1 (yes)

For "C[C@@H]1CN([C@@H](C)CO)C(=O)c2c(c3ccccc3n2C)-c2ccccc2CO[C@H]1CN(C)S(=O)(=O)c1ccc([N+](=O)[O-])cc1" , which call appears in the assay record?
0 (no)

Dear all, I need the recorded test outcome for "COc1ccc(C=Cc2ccc3ccccc3n2)c(OC)c1" , thank you.
1 (yes)

# lookup: test call for CC1(C)C(=O)C=C[C@@]2(C)C1C=C[C@]1(C)C2CC[C@@]2(C)[C@H](c3ccoc3)OC(=O)[C@H]3O[C@]321 (stereo partly drawn)
1 (yes)

Record lookup: outcome of this test for CC12CCC3C(CCC4(O)CC(O)CCC34C=NO)C1(O)CCC2C1=COC(=O)C1 (stereo not drawn) ?
1 (yes)

// return assay outcome for "COc1cccc(/C=N/Nc2ccc(C(=O)O)cc2)c1O"
1 (yes)

Given "Cc1noc(C)c1S(=O)(=O)N(C)C[C@@H]1OCc2ccccc2-c2c(n(C)c3ccccc23)C(=O)N([C@@H](C)CO)C[C@@H]1C" , state the outcome it received in this test.
1 (yes)

Short answer needed: outcome of this test for "C[n+]1c2n(c3ccccc31)N=C(c1ccc(-c3ccccc3)cc1)CS2" ?
1 (yes)
